experiment: Pharmacokinetic studies of certain compounds in female Balb/c mice (Example 5); type: in vivo; conditions: mouse, plasma, I-29 PO 23.8 mg/kg
MEASUREMENT TYPE: half-life (h)

{"columns": ["COMPOUND", "NUMERIC VALUE"],
 "data": [
  ["CC(C)Cc1sc(Nc2ncc(-c3cccs3)cc2C(=O)O)nc1C1CCC(F)(F)CC1 [Compound I-29]", 2.17]
]}

----------
test: Pharmacokinetic studies of certain compounds in female Balb/c mice (Example 5); assay type: in vivo; details: mouse, plasma, I-29 IV 1.48 mg/kg

{"columns": ["MOL SMILES", "half-life, min"],
 "data": [
  ["CC(C)Cc1sc(Nc2ncc(-c3cccs3)cc2C(=O)O)nc1C1CCC(F)(F)CC1", 21.1]
]}
